Exercise: state measured Ratio for each of the compounds provided.
Test system: Encephalomyocarditis virus
MEASUREMENT NOTES: Antiviral activity against Encephalomyocarditis virus infected in CF-1 mouse assessed as host survival time ratio at 50 mg/kg, po administered via gavage at 28, 22, 2 hrs before and 2 hrs after virus inoculation
Type: functional
Give bare numbers.

Examples from the recorded data:
// query API: value(readout= Ratio, system= Encephalomyocarditis virus, query= `Cl.c1cc2sc3ccc(OCCN4CCCCC4)cc3c2cc1OCCN1CCCCC1` )
// result 0.98

// query Observed Ratio on Encephalomyocarditis virus for `CCN(CC)CCCCc1ccc2c(c1)c1cc(CCCCN(CC)CC)ccc1n2CC.Cl` , please.
// result 0.98

Batch request: Ratio for each of the following compounds.
1. CCN(CC)CCOC(=O)c1ccc2oc3ccc(C(=O)OCCN(CC)CC)cc3c2c1.Cl
2. Cl.c1cc2sc3ccc(OCCCN4CCCCC4)cc3c2cc1OCCCN1CCCCC1

// result
1.02
0.98

Data origin, for the record: ChEMBL document CHEMBL3272338
